Target: hSTING (Homo sapiens, UniProt Q86WV6, G230A/H232R/R293Q/R71H)
Construct: host or cells: THP1-Dual KO-IFNAR2 cells
Sequence (Q86WV6 whole entry R71H/G230A/H232R/R293Q): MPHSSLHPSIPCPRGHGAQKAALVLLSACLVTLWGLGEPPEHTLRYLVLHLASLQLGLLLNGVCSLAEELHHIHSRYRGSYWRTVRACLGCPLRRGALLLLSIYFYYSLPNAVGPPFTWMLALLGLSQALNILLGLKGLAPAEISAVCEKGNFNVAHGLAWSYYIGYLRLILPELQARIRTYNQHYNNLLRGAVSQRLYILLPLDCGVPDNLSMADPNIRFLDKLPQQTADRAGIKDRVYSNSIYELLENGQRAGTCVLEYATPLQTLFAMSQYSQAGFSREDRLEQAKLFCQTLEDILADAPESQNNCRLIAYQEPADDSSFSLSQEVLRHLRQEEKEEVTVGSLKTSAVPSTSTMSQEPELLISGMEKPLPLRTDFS
Assay: STING reporter assay (luciferase) in THP1-Dual KO-IFNAR2 cells stimulated with 2′3′cGAMP
Format: cell-based
Details: 15 μM 2′3′cGAMP, 24 h, class symbols
measure_name: EC50

The cases that follow already have their EC50 on record.
>  <compound>
O=C(Nc1ccc(C(F)(F)F)cn1)C(=O)Nc1c[nH]c2ccncc12 [Compound 113]

>  <measure_name>
EC50

>  <value_reported>
1000 to 5000 nM

$$$$
>  <compound>
Cc1ccc2[nH]cc(NC(=O)C(=O)Nc3ccc(C4CCCCC4)cn3)c2n1 [Compound 207]

>  <measure_name>
EC50

>  <value_reported>
200 to 1000 nM

$$$$
>  <compound>
O=C(NCc1ccc(Cl)c(C(F)(F)F)c1)C(=O)Nc1c[nH]c2ccncc12 [Compound 171]

>  <measure_name>
EC50

>  <value_reported>
200 to 1000 nM

$$$$
>  <compound>
O=C(NCC1(c2cccc(Cl)c2)CC1)C(=O)Nc1c[nH]c2ccncc12 [Compound 129]

>  <measure_name>
EC50

>  <value_reported>
5000 to 100000 nM

$$$$
>  <compound>
Cc1cc(CNC(=O)C(=O)Nc2c[nH]c3cnccc23)ccc1C(F)(F)F [Compound 213]

>  <measure_name>
EC50

>  <value_reported>
1000 to 5000 nM

$$$$
>  <compound>
O=C(Nc1c[nH]c2ncc(F)cc12)C(=O)NC1CCC2(CCCCC2)CC1 [Compound 103]

>  <measure_name>
EC50

>  <value_reported>
200 to 1000 nM

$$$$

Required: EC50, one value per compound below.
1. O=C(NCc1ccc(C(F)(F)F)c(Cl)c1)C(=O)Nc1c[nH]c2ncc(F)c(F)c12 [Compound 131]
2. O=C(Nc1ccc(C(F)(F)F)cc1)C(=O)Nc1c[nH]c2ncc(F)cc12 [Compound 125]

5000 to 100000 nM
1000 to 5000 nM
